test system: Erysiphe graminis—ERYSGT; test: Powdery Mildew of Wheat, in vivo whole plant, 24 Hour Protectant; conditions: Erysiphe; wheat plants sprayed at 100 ppm, inoculated after 24 hours; control of fungal infection vs untreated plants; read-out: ERYSGT in vivo 1 Day Protectant
Give measured pest or weed control at 100 ppm for each item. Keep answers brief.

• COc1ccnc(C(=O)NC2CC(C)(C)CC(C)(C3CC3)C2)c1OC(C)=O (stereo not shown) = < 25%

Please supply pest or weed control at 100 ppm for each of the following items, keeping them in order.
1. O=C(Nc1cccc(Oc2cccc(C(F)(F)F)c2)c1)c1nc(Br)ccc1O
2. CC(C)C(=O)O[C@H]1[C@H](C)OC(=O)[C@@H](NC(=O)c2nccnc2O)COC(=O)[C@@H]1Cc1ccccc1
3. CC(NC(=O)c1ccncc1O)c1ccc(Cl)cc1 (stereo not shown)
4. C=C1COC(=O)[C@@H](NC(=O)c2nccc(OC)c2OC(C)=O)COC(=O)C1
5. O=C(Nc1ccc(Oc2cccc(C(F)(F)F)c2)cc1)c1cscc1O

Result:
1: 25 to 74%; 2: < 25%; 3: < 25%; 4: < 25%; 5: < 25%

I need pest or weed control at 100 ppm for every entry listed below, if you could help.
1. O=C(NCCc1ccc(Cl)cc1)c1cccnc1O
2. CC1(C)CC(NC(=O)c2nscc2O)CC(C)(C)C1
3. O=C(NCc1ccc(Cl)cc1)c1ccncc1O
4. COc1ccnc(C(=O)N[C@H]2CO[C@@H](C(C)Cc3ccc(C(C)(C)C)cc3)OC2)c1OC(C)=O (stereo partly shown)

Result:
1. < 25%
2. < 25%
3. < 25%
4. < 25%

Hey, can you go through the list below and give me pest or weed control at 100 ppm for every item?
1. COc1ccnc(C(=O)NC2CC(C)(C)C(=O)C(C)(C)C2)c1OC(C)=O
2. CC(C)C(=O)O[C@H]1[C@H](C)OC(=O)[C@@H](NC(=O)c2cc(O)cnc2O)COC(=O)[C@@H]1Cc1ccccc1
3. CC(C)C(=O)O[C@H]1[C@H](C)OC(=O)[C@@H](NC(=O)c2nsnc2O)COC(=O)[C@@H]1Cc1ccccc1
4. CC1(C)CC(NC(=O)c2nccnc2O)CC(C)(C)C1
5. CC(C)C(=O)O[C@H]1[C@H](C)OC(=O)[C@@H](NC(=O)c2nnc(O)nc2O)COC(=O)[C@@H]1Cc1ccccc1

Result:
< 25%
< 25%
25 to 74%
< 25%
< 25%

Task: Entry under review: `CC(C)C(=O)O[C@H]1[C@H](C)OC(=O)[C@@H](NC(=O)c2cnccc2O)COC(=O)[C@@H]1Cc1ccccc1` . Reported pest or weed control at 100 ppm?
Result: 25 to 74%

====

system: Leptosphaeria nodorum—LEPTNO; assay: Glume Blotch of Wheat, in vivo whole plant, 24 Hour Protectant; details: Leptosphaeria; 100 ppm spray, 24 hour protectant, wheat; control of fungal infection vs untreated plants; read-out: LEPTNO in vivo 1 Day Protectant
outcomeMeasure: pest or weed control at 100 ppm

* COc1ccnc(C(=O)N[C@@H]2CC(C)(C)C[C@](C)(C(=O)N(C)CCc3ccccc3)C2)c1O | 25 to 74%
* O=C(NCc1ccc(Cl)cc1)c1ncccc1O | < 25%
* COc1ccnc(C(=O)NCC2COCCOCCOCCOCCO2)c1O (centres unmarked) | 25 to 74%
* CC1(C)CC(NC(=O)c2ncccc2O)CC(C)(C2CC2)C1 (centres unmarked) | < 25%

Could you tell me pest or weed control at 100 ppm for each of these compounds? They are listed below.
1. O=C(NCCCCc1ccccc1)c1ncccc1O
2. COc1ccnc(C(=O)NC2CC(C)(C)C(Cl)C(Cl)[C@H](C)[C@H]2C)c1O (some centres unmarked)
3. COc1ccnc(C(=O)N[C@H]2CO[C@](C)(C(C)CC3=C(C)CCCC3(C)C)OC2)c1O (some centres unmarked)
4. COc1ccnc(C(=O)NC2CC(C)(C)C(Oc3cc(C(F)(F)F)cc(C(F)(F)F)n3)C(C)(C)C2)c1O (centres unmarked)

Result:
1. < 25%
2. 25 to 74%
3. < 25%
4. 25 to 74%

====

I'd appreciate it if you could supply inhibition at 25 ppm values for the items below.
system: Rhizoctonia solani (RHIZSO); test: microbe, parasite or virus in culture; assay type: cell-based; conditions: Rhizoctonia solani, read-out: RHIZSO in vitro Growth Inhibition

- COc1ccnc(C(=O)NC2C3CSC2CN(Cc2ccccc2)C3)c1O (stereo not shown): < 80%
- O=C(Nc1ccc(Oc2ccc(C(F)(F)F)cc2)cc1)c1nc(Br)ccc1O: < 80%
- Cn1cc(C(=O)NC2CC(C)(C)CC(C)(C)C2)c(O)n1: < 80%
- O=C(Nc1ccc(Oc2ccccc2C(F)(F)F)cc1)c1nc(Br)ccc1O: < 80%
- COc1ccnc(C(=O)NC(C(=O)OCC(C)C)C(C)OC(=O)C(C)Cc2ccccc2)c1O (stereo not shown): < 80%
- O=C(Oc1cccnc1C(=O)NC1CCC(OC(=O)c2ccccc2)CC1)c1ccccc1 (stereo not shown): < 80%
- COc1ccnc(C(=O)N[C@H]2COC(=O)[C@H](Cc3ccccc3)[C@@H](OC(=O)C(C)C)[C@H](C)OC2=O)c1OC(=O)c1ccc(F)cc1F: < 80%
- O=C(Nc1cccc(Oc2cccc(C(F)(F)F)c2)c1)c1nc(Br)ccc1O: < 80%
- COc1ccnc(C(=O)Nc2ccc(Oc3cccc(C)c3)cc2)c1O: < 80%
- CCC1(C)OCC(NC(=O)c2nccc(OC)c2O)CO1 (stereo not shown): < 80%

List inhibition at 25 ppm for every entry below, keeping the order given.
1. COCCCc1ccc2c(c1)OC(C)C(NC(=O)c1nccc(OC)c1O)C2=O (stereo not shown)
2. COc1ccnc(C(=O)N[C@H]2COC(=O)[C@H](Cc3ccccc3)[C@@H](OC(=O)C(C)C)[C@H](C)OC2=O)c1OC(=O)C1CCC1
3. COc1ccnc(C(=O)N[C@H]2COC(=O)[C@H](Cc3ccccc3)[C@@H](OC(=O)C(C)C)[C@H](C)OC2=O)c1OC(=O)C=C(C)C
4. CC1(C)CC(NC(=O)c2ccncc2O)CC(C)(C)C1
5. COc1ccnc(C(=O)N[C@@H]2OC[C@@H](OCc3ccccc3)[C@H](OCc3ccccc3)[C@H]2OCc2ccccc2)c1OC(C)=O
6. CSc1ccnc(C(=O)NC2COC(=O)[C@H](Cc3ccccc3)[C@@H](OC(=O)C(C)C)[C@H](C)OC2=O)c1O (stereo partly shown)

Result:
1. > 80%
2. < 80%
3. < 80%
4. < 80%
5. < 80%
6. < 80%

====

tested on: Septoria tritici—SEPTTR; assay: Leaf Blotch of Wheat, in vivo whole plant, 24 Hour Protectant; settings: Zymoseptoria tritici, 24 h, 100 ppm spray, 24 hour protectant, wheat; control of fungal infection vs untreated plants; read-out: SEPTTR in vivo 1 Day Protectant
Could you please report measured pest or weed control at 100 ppm for the items listed next?

Past entries and their recorded results:
- COc1ccnc(C(=O)NC2CCCC2=O)c1O (centres unmarked): 25 to 74%
- COc1ccnc(C(=O)N[C@@H]2CC3CC2c2ccccc23)c1O (some centres unmarked): 25 to 74%
- O=C(NCc1ccccc1Cl)c1ncccc1O: < 25%
- COc1ccnc(C(=O)N[C@H]2CO[C@H](C(C)Cc3ccc(C(C)(C)C)cc3)OC2)c1O (some centres unmarked): < 25%

Turning to the following compound.
Task: # input compound: COc1ccnc(C(=O)N[C@H]2C(O)[C@@H]3CC[C@H]2[C@@H]2CCCC[C@@H]23)c1O (some centres unmarked) ; wanted: its pest or weed control at 100 ppm
Result: 25 to 74%

====

system: Mycosphaerella graminicola (Septoria tritici—SEPTTR); assay: In vitro fungal growth inhibition, Mycosphaerella graminicola (SEPTTR); format: cell-based; conditions: Zymoseptoria tritici; 25 ppm in the growth medium; read-out: SEPTTR in vitro Growth Inhibition
outcomeMeasure: inhibition at 25 ppm

• CC1(C)CC(NC(=O)c2nsnc2O)CC(C)(C)C1 = > 80%
• CC(C)C(=O)O[C@H]1[C@H](C)OC(=O)[C@@H](NC(=O)c2nscc2O)COC(=O)[C@@H]1Cc1ccccc1 = > 80%
• COc1ccnc(C(=O)NC2CC(C)(C)C=C[C@@H](C)[C@@H]2C)c1OC(C)=O (some centres unmarked) = < 80%
• COc1ccc(CNC(=O)c2nc(Br)ccc2O)cc1 = < 80%
• CC(NC(=O)c1ccncc1O)c1ccc(C(F)(F)F)cc1 (centres unmarked) = < 80%
• COc1ccnc(C(=O)Nc2ccc(Oc3cccc(C(F)(F)F)n3)cc2)c1O = < 80%

Provide inhibition at 25 ppm for all items below, preserving their order.
1. COc1nc(O)c(C(=O)N[C@H]2COC(=O)[C@H](Cc3ccccc3)[C@@H](OC(=O)C(C)C)[C@H](C)OC2=O)nc1Cl
2. COc1ccnc(C(=O)N[C@H]2CO[C@H](C(C)Cc3ccc(C(C)(C)C)cc3)OC2)c1OC(C)=O (some centres unmarked)

Result:
1. < 80%
2. > 80%
